# tested.target: T1, rhesus ERBB3 on transiently transfected HEK-293 cells (rhesus monkey (Macaca mulatta), UniProt P21860 20-1342 (human entry))
# T1 construct: also called rhesus ERBB3+ HEK-293 cells
# T1 chain: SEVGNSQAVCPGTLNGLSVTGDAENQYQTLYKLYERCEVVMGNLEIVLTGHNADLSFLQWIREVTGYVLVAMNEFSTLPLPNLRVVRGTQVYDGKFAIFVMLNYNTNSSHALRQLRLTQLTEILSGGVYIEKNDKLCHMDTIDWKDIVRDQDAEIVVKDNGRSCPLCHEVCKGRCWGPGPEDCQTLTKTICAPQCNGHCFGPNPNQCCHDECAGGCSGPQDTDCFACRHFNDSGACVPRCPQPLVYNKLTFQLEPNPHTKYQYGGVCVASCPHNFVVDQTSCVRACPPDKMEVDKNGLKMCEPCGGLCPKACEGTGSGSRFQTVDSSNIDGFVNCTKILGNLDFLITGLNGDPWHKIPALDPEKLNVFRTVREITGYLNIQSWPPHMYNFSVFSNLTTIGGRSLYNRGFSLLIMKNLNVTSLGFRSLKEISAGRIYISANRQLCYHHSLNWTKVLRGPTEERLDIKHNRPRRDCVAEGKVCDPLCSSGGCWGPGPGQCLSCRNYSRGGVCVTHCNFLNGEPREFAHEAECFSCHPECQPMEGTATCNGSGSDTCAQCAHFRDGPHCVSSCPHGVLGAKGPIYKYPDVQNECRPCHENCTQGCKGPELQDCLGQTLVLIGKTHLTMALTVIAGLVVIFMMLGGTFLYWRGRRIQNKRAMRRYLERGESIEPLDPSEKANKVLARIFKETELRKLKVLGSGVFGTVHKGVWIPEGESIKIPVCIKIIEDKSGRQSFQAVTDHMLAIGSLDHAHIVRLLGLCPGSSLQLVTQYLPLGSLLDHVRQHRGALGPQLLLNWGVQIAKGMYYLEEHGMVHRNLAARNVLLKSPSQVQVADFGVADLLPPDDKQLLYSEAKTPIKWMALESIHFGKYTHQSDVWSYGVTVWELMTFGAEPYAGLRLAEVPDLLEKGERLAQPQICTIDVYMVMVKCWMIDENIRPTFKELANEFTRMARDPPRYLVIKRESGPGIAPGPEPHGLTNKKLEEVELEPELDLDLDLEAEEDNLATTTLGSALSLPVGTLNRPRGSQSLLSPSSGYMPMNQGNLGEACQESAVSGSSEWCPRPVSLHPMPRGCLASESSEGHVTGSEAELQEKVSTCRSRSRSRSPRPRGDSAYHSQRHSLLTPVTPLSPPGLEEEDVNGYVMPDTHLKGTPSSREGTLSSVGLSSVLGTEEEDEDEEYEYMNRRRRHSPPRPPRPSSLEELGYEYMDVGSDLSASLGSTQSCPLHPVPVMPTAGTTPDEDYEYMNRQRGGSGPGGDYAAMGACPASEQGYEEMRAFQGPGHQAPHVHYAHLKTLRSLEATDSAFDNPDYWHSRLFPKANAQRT
# assay.overview: flow cytometry, rhesus ERBB3-transfected HEK-293 cells, IgG1 titrated
assay.readout: binding result

15G11-DI8 IgG1 (antibody, V domains shown, Human IgG1 format, human Ckappa) VH: QVQLVESGGGLVKPGGSLRLSCAASGFTFSDYSMSWIRQAPGKGLEWVSTISDSGTYTYYPDSVKGRFTISRDNAKNSLYLQMNSLRAEDTAVYYCAREWGDYDGFDFWGQGTLVTVSS VL: DIQMTQSPSSLSASVGDRVTITCRASQEISTYLSWYQQKPGKAPKLLIYAASSLDTGVPSRFSGSGSGTDFTLTISSLQPEDFATYYCLQYDSSPYTFGGGTKVEIK :: binds
15G11-DI10 IgG1 (antibody, V domains shown, Human IgG1 format, human Ckappa) VH: QVQLVESGGGLVKPGGSLRLSCAASGFTFSDYGMSWVRQAPGKGLEWVSTISDSGSYTYYPDSVKGRFTISRDNAKNSLYLQMNSLRAEDTAVYYCARELGDYDGFDYWGQGTLVTVSS VL: DIQMTQSPSSLSASVGDRVTITCRASQEISSYLSWYQQKPGKAPKLLAYAASSLDSGVPSRFSGSGSGTDFTLTISSLQPEDFATYYCLQYDSTPYTFGGGTKVEIK :: binds

Hello, the source for this data is patent US20200339702A1, in case you need it.
